Cited source for all entries: paper PMC12863215

# Tested on: MaMATE14
# Construct: full-length cDNA in pYES2, expressed in Saccharomyces cerevisiae BY4741; microsomal vesicles; 510 residues; 12 predicted transmembrane segments
# Protocol Details: uptake into yeast microsomal vesicles, HPLC, Lineweaver-Burk
# Assay type: biochemical, Muscari aucheri
# Condition: transport; 5 mM MgATP, 25 mM Tris-MES pH 8.0, 50 mM KCl, 25 °C, 20 min; minus-ATP subtracted
Endpoint Name: Km (µM)
Record the value in µM, omitting the unit from your answer.

Guide cases for Km, answers given:
OC[C@H]1O[C@@H](Oc2cc3c(O[C@@H]4O[C@H](CO)[C@@H](O)[C@H](O)[C@H]4O)cc(O)cc3[o+]c2-c2ccc(O)c(O)c2)[C@H](O)[C@@H](O)[C@@H]1O [cyanidin-3,5-di-O-glucoside]    45.3
Oc1ccc([C@H]2Oc3cc(O)cc(O)c3C[C@H]2O)cc1 [(−)-epiafzelechin]    43.8

Query Km on MaMATE14 for O=c1c(O)c(-c2ccc(O)cc2)oc2cc(O[C@@H]3O[C@H](CO)[C@@H](O)[C@H](O)[C@H]3O)cc(O)c12 [kaempferol 7-O-glucoside]
57.4

Also OC[C@H]1O[C@@H](Oc2cc3c(O)cc(O)cc3[o+]c2-c2ccc(O)c(O)c2)[C@H](O)[C@@H](O)[C@@H]1O [cyanidin-3-O-glucoside] , if possible.
61.4
